- System Name: APOL1 (Homo sapiens, UniProt O14791)
- Sequence (O14791 whole entry S342G/I384M, form open): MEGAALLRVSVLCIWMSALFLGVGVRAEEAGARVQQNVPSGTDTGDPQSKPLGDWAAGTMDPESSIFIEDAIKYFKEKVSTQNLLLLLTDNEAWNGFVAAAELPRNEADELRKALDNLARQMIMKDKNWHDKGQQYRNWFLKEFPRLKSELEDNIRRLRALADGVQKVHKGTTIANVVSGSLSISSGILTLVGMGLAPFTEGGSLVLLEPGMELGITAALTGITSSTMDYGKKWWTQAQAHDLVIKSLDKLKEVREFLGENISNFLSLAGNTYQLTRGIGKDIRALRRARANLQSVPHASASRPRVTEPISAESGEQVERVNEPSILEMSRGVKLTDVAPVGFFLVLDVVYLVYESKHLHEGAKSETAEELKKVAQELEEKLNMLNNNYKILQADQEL
- Test: MultiTox-Fluor Multiplex Cytotoxicity Assay in tet-inducible APOL1 T-REx-HEK293 cells (cell rescue, ratio of dead to live cells)
- Measurement Parameters: tet-inducible transgenic APOL1 T-REx-HEK293 cell lines, 50 ng/mL tet, 24 hours; read-out: IP50 (i.e., IC50 for cell proliferation)
// IC50 lookup, one value per entry

The compound CCc1cc2c(s1)CCO[C@@]21CCN(C[C@H]2C[C@@H](NC(=O)C(C)(C)N)C2)[C@@H](C)C1 [Compound 360] showed IC50 equal to 100 to 500 nM

The compound C[C@H]1C[C@@]2(CCN1Cc1cnn(C[C@H](O)C(=O)N(C)C)c1)OC[C@@H](O)c1cc(C(F)(F)F)sc12 [Compound 998] showed IC50 equal to < 100 nM

The compound Cc1ncc(CN2CC[C@]3(C[C@@H]2C)OCCc2cc(Cl)sc23)n1C [Compound 683] showed IC50 equal to 500 to 1000 nM

The compound CCc1cc2c(s1)CCOC21CCN(Cc2cn(CCCF)nn2)CC1 [Compound 1099] showed IC50 equal to 500 to 1000 nM

###

// pIC50 lookup, one value per entry
- System Name: APOL1 (Homo sapiens)
- Test: MultiTox-Fluor Multiplex Cytotoxicity Assay in tet-inducible APOL1 T-REx-HEK293 cells (cell rescue, ratio of dead to live cells)
- Measurement Parameters: tet-inducible transgenic APOL1 T-REx-HEK293 cell lines, 50 ng/mL tet, 24 hours; read-out: IP50 (i.e., IC50 for cell proliferation)
pIC50: −log10 of the molar value.

CCc1cc2c(s1)CCO[C@@]21CCN(CC(C)O)[C@@H](C)C1 (some centres unmarked) :: 6.30 to 7.00
CCN1CC[C@]2(C[C@@H]1C)OCCc1cc(CC(F)F)sc12 :: 6.30 to 7.00
CCc1cc2c(s1)CCO[C@@]21CCN(CC2CN(C(=O)c3ccn(CO)n3)C2)[C@@H](C)C1 :: > 7.00
C[C@H]1C[C@@]2(CCN1Cc1cnn(CC3(O)CCOC3=O)c1)OCCc1c2sc(C(F)(F)F)c1CO (some centres unmarked) :: 6.00 to 6.30
CCc1cc2c(s1)C(CC)COC21CCN(Cc2cn(CCS(C)(=O)=O)nn2)CC1 (centres unmarked) :: 6.00 to 6.30
CCc1cc2c(s1)CCO[C@@]21CCN(Cc2cn(CCS(=O)(=O)NCC(C)O)nn2)[C@@H](C)C1 (some centres unmarked) :: > 7.00
CCc1cc2c(s1)CCO[C@@]21CCN(Cc2cn(Cc3nc(C)no3)nn2)[C@@H](C)C1 :: > 7.00

The compound C[C@H]1C[C@@]2(CCN1Cc1cnn(CC(C)(CO)CO)c1)OCCc1cc(CC(F)F)sc12 showed pIC50 equal to > 7.00

###

// pIC50 lookup, one value per entry
- System Name: APOL1 (Homo sapiens, UniProt O14791)
- Test: MultiTox-Fluor Multiplex Cytotoxicity Assay in tet-inducible APOL1 T-REx-HEK293 cells (cell rescue, ratio of dead to live cells)
- Measurement Parameters: tet-inducible transgenic APOL1 T-REx-HEK293 cell lines, 50 ng/mL tet, 24 hours; read-out: IP50 (i.e., IC50 for cell proliferation)
pIC50: −log10 of the molar value.

Look over these answered cases.
CCc1cc2c(s1)CCO[C@@]21CCN(Cc2cn(Cc3c[nH]nc3C)nn2)[C@@H](C)C1 :: > 7.00
C[C@H]1C[C@@]2(CCN1Cc1cnn(CC3(O)CCS(=O)(=O)CC3)c1)OCCc1c2sc(C(F)(F)F)c1CO :: > 7.00
C[C@H]1C[C@@]2(CCN1Cc1cnn(CC(O)C(N)=O)c1)OC[C@@H](O)c1cc(C(F)(F)F)sc12 (some centres unmarked) :: > 7.00

The compound C[C@H]1C[C@@]2(CCN1Cc1cn(-c3ncccn3)cn1)OCCc1cc(Cl)sc12 showed pIC50 equal to 6.30 to 7.00

The compound C[C@H]1C[C@@]2(CCN1Cc1cnn(CCS(C)(=O)=O)c1)OCCc1c2sc(C(F)F)c1CO showed pIC50 equal to > 7.00

###

- System Name: APOL1 (Homo sapiens)
- Test: MultiTox-Fluor Multiplex Cytotoxicity Assay in tet-inducible APOL1 T-REx-HEK293 cells (cell rescue, ratio of dead to live cells)
- Measurement Parameters: tet-inducible transgenic APOL1 T-REx-HEK293 cell lines, 50 ng/mL tet, 24 hours; read-out: IP50 (i.e., IC50 for cell proliferation)
// IC50 lookup, one value per entry

C[C@H]1C[C@@]2(CCN1CCCn1cccn1)OCCc1c2sc(Cl)c1CO [Compound 721] :: 0.5 to 1 µM
CCc1cc2c(s1)CCO[C@@]21CCN(Cc2cn(CC(C)(C)CCO)nn2)[C@@H](C)C1 [Compound 80] :: 0.1 to 0.5 µM
CCc1cc2c(s1)CCO[C@@]21CCN(CC2CN(C(=O)C(C)(C)O)C2)[C@@H](C)C1 [Compound 443] :: < 0.1 µM
CCc1cc2c(s1)CCO[C@@]21CCN(C[C@H]2C[C@@H](NC(=O)CCN3CCCCC3)C2)[C@@H](C)C1 [Compound 322] :: 0.1 to 0.5 µM

The molecule C[C@H]1C[C@@]2(CCN1CC1CCOC1)OCCc1cc(CC(F)F)sc12 (some centres unmarked) [Compound 583] showed IC50 equal to 0.1 to 0.5 µM

The molecule COc1cc(CN2CC[C@]3(C[C@@H]2C)OCCc2cc(Cl)sc23)ccc1OCC(N)=O [Compound 663] showed IC50 equal to < 0.1 µM

The molecule C[C@H]1C[C@@]2(CCN1CCC(F)(F)F)OCCc1cc(CC(F)F)sc12 [Compound 582] showed IC50 equal to 0.5 to 1 µM

The molecule CCS(=O)(=O)N[C@H]1C[C@@H](CN2CC[C@]3(C[C@@H]2C)OCCc2cc(CC(F)F)sc23)C1 [Compound 553] showed IC50 equal to < 0.1 µM

###

- System Name: UniProtKB O14791
- Test: MultiTox-Fluor Multiplex Cytotoxicity Assay in tet-inducible APOL1 T-REx-HEK293 cells (cell rescue, ratio of dead to live cells)
- Type: cell-based
- Measurement Parameters: tet-inducible transgenic APOL1 T-REx-HEK293 cell lines, 50 ng/mL tet, 24 hours; read-out: IP50 (i.e., IC50 for cell proliferation)
pIC50: −log10 of the molar value.
// pIC50 lookup, one value per entry

Look over these answered cases.
CCc1cc2c(s1)CCOC21CCN(Cc2cn(CC(O)c3cccnc3)nn2)CC1 (stereo not shown) :: 6.00 to 6.30
Cc1ccc(CN2CC[C@]3(C[C@@H]2C)OCCc2c3sc(Cl)c2CO)c(C)n1 :: 6.00 to 6.30
CCc1cc2c(s1)CCO[C@@]21CCN(C[C@H]2C[C@@H](NC(=O)CC3CC3(F)F)C2)[C@@H](C)C1 (stereo partly shown) :: > 7.00

The molecule C[C@H]1C[C@@]2(CCN1Cc1cn(CC(CO)CO)nn1)OCCc1cc(Cl)sc12 showed pIC50 equal to 6.30 to 7.00

###

- System Name: APOL1 (Homo sapiens, UniProt O14791)
- Test: MultiTox-Fluor Multiplex Cytotoxicity Assay in tet-inducible APOL1 T-REx-HEK293 cells (cell rescue, ratio of dead to live cells)
- Measurement Parameters: tet-inducible transgenic APOL1 T-REx-HEK293 cell lines, 50 ng/mL tet, 24 hours; read-out: IP50 (i.e., IC50 for cell proliferation)
Measure Name: IC50

C[C@H]1C[C@@]2(CCN1Cc1cnn(CC(C)(CO)CO)c1)OC[C@](O)(C(F)F)c1cc(Cl)sc12 :: < 100 nM
C[C@H]1C[C@@]2(CCN1Cc1cccc(F)c1O)OCCc1cc(Cl)sc12 :: 500 to 1000 nM
CCc1cc2c(s1)CCO[C@@]21CCN(C[C@H]2C[C@@H](NC(=O)c3oncc3C)C2)[C@@H](C)C1 :: < 100 nM
C[C@H]1C[C@@]2(CCN1Cc1cn(CCCS(C)(=O)=O)nn1)OCCc1c2sc(C(F)(F)F)c1CO :: 100 to 500 nM
CCc1cc2c(s1)CCO[C@@]21CCN(CC2CN(C(=O)Cc3ccncc3)C2)[C@@H](C)C1 :: < 100 nM
CCc1cc2c(s1)CCO[C@@]21CCN(Cc2cn(CC3(S(C)(=O)=O)CC3)nn2)[C@@H](C)C1 :: < 100 nM

// next item, IC50 requested
The compound C[C@H]1C[C@@]2(CCN1Cc1cn(CCCS(C)(=O)=O)nn1)OCCc1cc(CC(F)F)sc12 showed IC50 equal to < 100 nM

###

- System Name: APOL1 (Homo sapiens, UniProt O14791)
- Test: MultiTox-Fluor Multiplex Cytotoxicity Assay in tet-inducible APOL1 T-REx-HEK293 cells (cell rescue, ratio of dead to live cells)
- Measurement Parameters: tet-inducible transgenic APOL1 T-REx-HEK293 cell lines, 50 ng/mL tet, 24 hours; read-out: IP50 (i.e., IC50 for cell proliferation)
- Method: The MultiTox-Fluor Multiplex Cytotoxicity Assay is a single-reagent-addition, homogeneous, fluorescence assay that measures the number of live and dead cells simultaneously in culture wells. […] The MultiTox reagent was added to each well and placed back in the incubator for an additional 30 minutes. The plate was read on the EnVision plate reader. A ratio of dead to live cells was used to normalize, and data was imported, analyzed, and fit using Genedata Screener (Basel, Switzerland) software. […]
pIC50: −log10 of the molar value.
// pIC50 lookup, one value per entry

Cn1cc(CN2CCC3(CC2)OCCc2sc(Cl)cc23)cn1 :: 6.00 to 6.30
CCc1cc2c(s1)CCO[C@@]21CCN(C[C@H]2C[C@@H](NC(=O)C3CC(F)(F)C3)C2)[C@@H](C)C1 :: > 7.00
C[C@H]1C[C@@]2(CCN1Cc1cnn(CC(O)CC3(O)COC3)c1)OCCc1c2sc(C(F)(F)F)c1CO (stereo partly shown) :: > 7.00
C[C@H]1C[C@@]2(CCN1Cc1cnn(C[C@H](O)C(N)=O)c1)OC[C@@H](O)c1cc(C(F)(F)F)sc12 :: > 7.00
CCc1cc2c(s1)CCO[C@@]21CCN(C[C@H]2C[C@@H](NC(=O)OCC3CCCCC3)C2)[C@@H](C)C1 :: 6.30 to 7.00

Observed pIC50 on APOL1 (Homo sapiens, UniProt O14791), entry CCc1cc2c(s1)CCO[C@@]21CCN(CC2CN(C(=O)c3ccon3)C2)[C@@H](C)C1 , equals > 7.00

Observed pIC50 on APOL1 (Homo sapiens, UniProt O14791), entry C[C@H]1C[C@@]2(CCN1Cc1cn(CCCS(C)(=O)=O)nn1)OC[C@](O)(C(F)F)c1cc(Cl)sc12 , equals > 7.00

Observed pIC50 on APOL1 (Homo sapiens, UniProt O14791), entry C[C@H]1C[C@@]2(CCN1Cc1cn3c(n1)CCC3)OCCc1cc(Cl)sc12 , equals 6.00 to 6.30

Observed pIC50 on APOL1 (Homo sapiens, UniProt O14791), entry C[C@H]1C[C@@]2(CCN1Cc1cnccn1)OC[C@H](O)c1cc(Cl)sc12 , equals 6.00 to 6.30

Observed pIC50 on APOL1 (Homo sapiens, UniProt O14791), entry Cc1sc2c(c1CO)CCO[C@@]21CCN(Cc2cnn(CCS(C)(=O)=O)c2)[C@@H](C)C1 , equals > 7.00

Observed pIC50 on APOL1 (Homo sapiens, UniProt O14791), entry C[C@H]1C[C@@]2(CCN1CCC1CCOCC1)OC[C@H](O)c1cc(Cl)sc12 , equals 6.00 to 6.30

Observed pIC50 on APOL1 (Homo sapiens, UniProt O14791), entry CCc1cc2c(s1)CCO[C@@]21CCN(Cc2cn(CC(C)(CO)CO)nn2)[C@@H](C)C1 , equals > 7.00

Observed pIC50 on APOL1 (Homo sapiens, UniProt O14791), entry CC(C)Cn1cc(CN2CC[C@]3(C[C@@H]2C)OCCc2c3sc(Cl)c2CO)cn1 , equals 6.30 to 7.00

Observed pIC50 on APOL1 (Homo sapiens, UniProt O14791), entry C[C@H]1C[C@@]2(CCN1CCO)OCCc1sc(Cl)cc12 , equals 6.30 to 7.00

Observed pIC50 on APOL1 (Homo sapiens, UniProt O14791), entry CCc1cc2c(s1)CCO[C@@]21CCN(Cc2cn(-c3cccnc3)nn2)[C@@H](C)C1 , equals > 7.00

Observed pIC50 on APOL1 (Homo sapiens, UniProt O14791), entry CCc1cc2c(s1)CCOC21CCN(Cc2ccc(S(C)(=O)=O)cc2)CC1 , equals 6.00 to 6.30
